Exercise: for every item that follows, state its recorded Lethal dose.
Test: toxicity, Irwin's test
Format: in vivo
Settings: i.p.; death of two animals out of three within 48 hours
Counter-ions that a name gives are not always drawn.
Give bare numbers, in mg/kg.

molecule | observed-value
CC1(c2nc(NC3CC3)nc(N3CCOCC3)n2)CC1 [Compound 24] | 825
O=S1(=O)CCN(c2nc(NC3CC3)nc(C3CC3)n2)C1 [Compound 22] | 295
O=S1(=O)CCN(c2nc(NC3CC3)nc(C3CC3)n2)CC1 [Compound 20] | 185
CCCc1nc(NC2CC2)nc(N2CC3CCC(C2)O3)n1 [Compound 11] | 325.8
CC(C)c1nc(NC2CC2)nc(N2CC3CCC(C2)O3)n1 [Compound 12] | 325.8
CCCc1nc(NC2CC2)nc(N2CCOCC2)n1 [Compound 1] | 898
CCc1nc(NC2CC2)nc(N2CCOCC2)n1 [Compound 2] | 285
C1CN(c2nc(NC3CC3)nc(C3CC3)n2)CCO1.Cl [Compound 3] | 297.8

Each molecule below has a reported value. Please supply its Lethal dose.
1. O=S1(=O)CCN(c2nc(NC3CC3)nc(C3CCC3)n2)CC1 [Compound 26, hydrochloride]
2. COC1CN(c2nc(NC3CC3)nc(C3CC3)n2)C1 [Compound 14]

1: 201.5; 2: 156.8

---

Tested on: anaphylactic release of histamine, guinea-pig lung sections
Assay: potentiation of the inhibition of anaphylactic histamine release by isoprenaline
Format: cell-based, Dunkin-Hartley guinea-pigs
Conditions: with isoprenaline 10^-7 mole per liter
Exercise: for every item that follows, state its recorded Minimum potentiating dose (MPD).
Give bare numbers, in µmol/L.

The examples below pair each entry with its known result.
compound | observed-value
OC1CN(c2nc(NC3CC3)nc(C3CC3)n2)C1 [Compound 13] | 1.0
CCCc1nc(NC2CC2)nc(N2CCC(O)CC2)n1 [Compound 5] | 3.2

Each compound below has a reported value. Please supply its Minimum potentiating dose (MPD).
1. COC1CN(c2nc(NC3CC3)nc(C3CC3)n2)C1 [Compound 14]
2. CCCc1nc(NC2CC2)nc(N2CC(O)C2)n1 [Compound 15]
3. CC1(c2nc(NC3CC3)nc(N3CCOCC3)n2)CC1 [Compound 24]

1: 0.32; 2: 3.2; 3: 0.32

---

Exercise: for every item that follows, state its recorded Lethal dose.
Experiment: toxicity, Irwin's test
Type: in vivo
Details: i.p.; death of two animals out of three within 48 hours
Numbers only, in mg/kg.

compound | observed-value
[O-][S+]1CCN(c2nc(NC3CC3)nc(C3CC3)n2)C1 (centres unmarked) | 156
Cc1nc(NC2CC2)nc(N2CC3CCC(C2)O3)n1.Cl | 297.8
C1CCC(c2nc(NC3CC3)nc(N3CCOCC3)n2)C1 | 326

GET /values?readout=Lethal dose&item= C1CN(c2nc(NC3CC3)nc(C3CC3)n2)CCS1
277

---

Exercise: for every item that follows, state its recorded activity at 1 µM.
Tested on: PMN granulocytes
Experiment: inhibition of the stimulation of PMN granulocytes (chemiluminescence)
Type: cell-based, Rat
Conditions: Rattus norvegicus; 10^-6 mole/l; FMLP 3.2×10^-7 mole/liter; read-out: Residual chemiluminescence
Answers are plain numbers, in %.

The examples below pair each entry with its known result.
molecule | system | unit-symbol | activity at 1 µM
Cn1c(=O)c2[nH]cnc2n(C)c1=O [theophylline, reference compound] | PMN granulocytes | % | 100
CCCc1nc(NC2CC2)nc(N2CCOCC2)n1 [Compound 1] | PMN granulocytes | % | 47
C1CC1Nc1nc(C2CC2)nc(N2CC3CCC(C2)O3)n1 [Compound 16] | PMN granulocytes | % | 42
CCCc1nc(NC2CC2)nc(N2CC(O)C2)n1 [Compound 15] | PMN granulocytes | % | 70
OC1CN(c2nc(NC3CC3)nc(C3CC3)n2)C1 [Compound 13] | PMN granulocytes | % | 79

Each molecule below has a reported value. Please supply its activity at 1 µM.
1. COC1CN(c2nc(NC3CC3)nc(C3CC3)n2)C1 [Compound 14]
2. CCc1nc(NC2CC2)nc(N2CCOCC2)n1 [Compound 2]
3. CCCc1nc(NC2CC2)nc(N2CC3CCC(C2)O3)n1 [Compound 11]
4. Cc1nc(NC2CC2)nc(N2CC3CCC(C2)O3)n1.Cl [Compound 9, hydrochloride]
5. CCc1nc(NC2CC2)nc(N2CC3CCC(C2)O3)n1 [Compound 10]
6. CCCc1nc(NC2CC2)nc(N(CCO)CCO)n1 [Compound 6]
7. OCCN(CCO)c1nc(NC2CC2)nc(C2CC2)n1 [Compound 7]
8. CCCc1nc(NC2CC2)nc(N2CCC(O)CC2)n1 [Compound 5]

1: 51; 2: 68; 3: 44; 4: 82; 5: 56; 6: 55; 7: 54; 8: 74

Each molecule below has a reported value. Please supply its activity at 1 µM.
1. CC(C)c1nc(NC2CC2)nc(N2CC3CCC(C2)O3)n1 [Compound 12]
2. C1CN(c2nc(NC3CC3)nc(C3CC3)n2)CCO1.Cl [Compound 3, hydrochloride]

[36, 39]

GET /values?readout=activity at 1 µM&item= C1CC(c2nc(NC3CC3)nc(N3CCOCC3)n2)C1 [Compound 4]
45
